Cited source: PubChem BioAssay (NCI)

Would you mind telling me the reported growth of each entry?
Tested on: OVCAR-4 ovarian
procedure-summary: NCI-60 one-dose screen, 48 h (100 = growth as untreated, 0 = no growth, -100 = all killed)
condition-context: 10 µM
About 83,000 compounds went through this panel and 20% of them were active in at least one assay; those are over-represented in the sample as a whole.
Answers are plain numbers, in %.

// solved cases for growth follow
> print(dat)
                                   compound  target.or.test.system  observed.measurement
1  O=S(=O)(NCCO)c1ccc(OCCOc2ccc(S(=O)(=O)NCCO)cc2)cc1        OVCAR-4 ovarian                   107
2  O=C(Nc1cccc(Cl)c1)Nc1cc2ncncc2cc1OCc1cccc(F)c1        OVCAR-4 ovarian                  22.4
3  O=C(COc1ccc(Cl)cc1Cl)Oc1coc(CSc2nc3ccccc3s2)cc1=O        OVCAR-4 ovarian                  99.1
4  COc1cc(-c2nc3ccc(C)cc3[nH]2)ccc1OCc1nnc(-c2ccc(CC(C)C)cc2)o1        OVCAR-4 ovarian                  91.2
5  COc1ccc(Cn2cc3c(c2-c2cc(OC)c(OC)c(OC)c2)CCc2cnoc2-3)cc1[N+](=O)[O-]        OVCAR-4 ovarian                    47

Please go through the list and note growth for each compound.
1. CCC(O)c1ccc(Br)cc1NC(=O)c1cccc(Cl)c1 (stereo not given)
2. COC(=O)[C@]12CC[C@@H](C)[C@H](C)[C@@H]1C1=CC[C@@H]3[C@@]4(C)CC(=O)[C@H](O)[C@@](C)(CO)[C@@H]4C(=O)C[C@@]3(C)[C@]1(C)CC2
3. Nc1c(CNCc2nnn(Cc3ccccc3)c2N)nnn1Cc1ccccc1

1: 24.9; 2: 13.8; 3: 92.1

---

System: PC-3 prostate
procedure-summary: NCI-60 one-dose screen, 48 h (100 = growth as untreated, 0 = no growth, -100 = all killed)
condition-context: 10 µM
The panel holds about 83,000 compounds, 20% with a hit somewhere; the sample as a whole holds those more often.
Would you mind telling me the reported growth of each entry?
Give bare numbers, in %.

> print(dat)
                                   compound  observed.measurement
1  COc1ccc(-c2nc(-c3nc4ccc(OC)cc4[nH]3)c3ccccn23)cc1                    35
2  CCc1nn2c(-c3cc(OC)c(OC)c(OC)c3)c(-c3cc(OC)c(OC)c(OC)c3)nc2s1                  82.9
3  COc1ccc(-c2n/c(=C\c3c(O)[nH]c4ccccc34)cc3c2=Nc2ccccc2-3)cc1                  43.3
4  CC(=O)O[C@H]1CC[C@@]2(C)[C@@H](CC[C@@H]3[C@@H]2CC[C@]2(C)C=C(C=O)C[C@@H]32)C1                  62.5

Please go through the list and note growth for each compound.
1. CC1(CO)CCCC12OCCO2 (stereo unspecified)
2. COc1ccc2nc(NC(=O)Nc3c(F)cccc3F)sc2c1
3. CCCCCN(CCCCC)C(C)C(O)c1ccc2cc(Cl)c3ccccc3c2c1 (stereo unspecified)
4. Cc1ccc(C(=O)O)c(N)c1C
5. COc1ccc(C2=NNC(c3sc(Cl)nc3Cl)C2)cc1 (stereo unspecified)
6. CCCOCC(O)CNCCN (stereo unspecified)
7. COc1cc2ccnc(C=O)c2cc1OC

[103, 95, 80.6, 94.6, 89.6, 83.4, 90.7]

---

Test system: 786-0 renal
procedure-summary: NCI-60 one-dose screen, 48 h (100 = growth as untreated, 0 = no growth, -100 = all killed)
condition-context: 10 µM
Compounds without any hit were thinned out: in the full panel of roughly 83,000, 20% have a hit.
# class assignment by measured growth: low (below 50%), moderate (50% to below 90%), high (90% or more)

Here's what some known entries look like.
> print(dat)
                                   compound  assigned.label
1  CNC(=S)Sc1ccc([N+](=O)[O-])cc1[N+](=O)[O-]            high
2  CCc1nn2c(-c3cc(OC)c(OC)c(OC)c3)c(-c3cc(OC)c(OC)c(OC)c3)nc2s1        moderate
3          CCCCCCCC/C=C/CCCCCCCCC1=NCCN1CCO        moderate
4      COc1ccc(C2=Cc3ccc(OC(C)=O)cc3OC2)cc1            high

Into which bin does this compound go? Cc1cccc2c(Nc3ccc(NS(C)(=O)=O)cc3)c3ccc([N+](=O)[O-])cc3nc12 low

Now this one: Cn1cnc([N+](=O)[O-])c1Sc1nnc(-c2ccccc2)c(-c2ccccc2)n1 moderate

Now this one: O=c1[nH]c(=O)n(C2C[C@@H](O)[C@@H](CO)O2)cc1F (stereo partly drawn) low

Now this one: COc1c(-c2c3sc(=O)[nH]c3nc3c2c(=O)[nH]n3C(C)C)cc2c(c1OC)OCO2 moderate

Now this one: COCc1cc2c(cc1Br)OCO2 high

Now this one: Oc1cc(O)c(Br)cc1Br high

---

Tested on: UACC-257 melanoma
procedure-summary: NCI-60 one-dose screen, 48 h (100 = growth as untreated, 0 = no growth, -100 = all killed)
condition-context: 10 µM
This is part of a sample that, as a whole, favours compounds with a hit. Of some 83,000 tested, about 20% had one in any assay.
Would you mind telling me the reported growth of each entry?
Give bare numbers, in %.

compound	endpoint-unit	growth
Cc1ncc([N+](=O)[O-])n1CCOc1ccc(C(=O)/C=C/c2ccc(C(F)(F)F)cc2)cc1	%	82.9
CCN1CCOC1C(C)C (stereo not given)	%	104
CCCCC(=O)N(c1ccc(Nc2c3ccccc3nc3cc([N+](=O)[O-])ccc23)cc1)S(C)(=O)=O	%	79.8
COc1cc2nc(Sc3sc(N)nc3C)n(-c3ccc(Oc4ccccc4)cc3)c(=O)c2cc1OC	%	89.7

Recorded growth for COc1ccc2oc(=O)cc(C3c4ccc([nH]4)C(c4cc(=O)oc5ccc(OC)cc45)c4ccc([nH]4)C(c4cc(=O)oc5ccc(OC)cc45)c4ccc([nH]4)C(c4cc(=O)oc5ccc(OC)cc45)c4ccc3[nH]4)c2c1 (stereo not given) with UACC-257 melanoma, please? 33.7

---

Would you mind telling me the reported growth of each entry?
Tested on: ACHN renal
procedure-summary: NCI-60 one-dose screen, 48 h (100 = growth as untreated, 0 = no growth, -100 = all killed)
condition-context: 10 µM
This is part of a sample that, as a whole, favours compounds with a hit. Of some 83,000 tested, about 20% had one in any assay. Activity calls are given as the source filed them. The calls were made as follows: active = growth percent below 10; inactive = the rest.

// solved cases for growth follow
> print(dat)
                                   compound  target.or.test.system  observed.measurement
1    CC(=O)Nc1nc(C)c(C(=O)N/N=C/c2cccn2C)s1             ACHN renal       107% (inactive)
2  COc1cc(-c2c(C#N)c(N)n3c(nc4ccccc43)c2C#N)cc(Br)c1OC             ACHN renal      50.1% (inactive)
3           O=C(Nc1cccc(C(F)(F)F)c1)C(Cl)Cl             ACHN renal       103% (inactive)
4  CCC(CCNc1cc(OC)cc2cccnc12)CN1C(=O)c2ccccc2C1=O (configuration not stated)             ACHN renal       102% (inactive)
5             C/C(=N\NC(=S)N1CCCC1)c1ccccn1             ACHN renal      15.5% (inactive)

Please go through the list and note growth for each compound.
1. CCOC(=O)C(=O)Cc1cccnn1
2. O=C(c1ccccc1)C(Nc1ccccc1)c1ccccc1 (configuration not stated)
3. O=C(O)CN1C(=O)C=CC1=O
4. COc1cc(/C=C/C(=O)c2cc(-c3ccccc3)ccc2O)cc(OC)c1OC
5. CCOC(=O)c1sc(NC(=O)c2cc(OC)c(OC)c(OC)c2)nc1C

103% (inactive)
89.2% (inactive)
104% (inactive)
77.3% (inactive)
105% (inactive)

Please go through the list and note growth for each compound.
1. CCOC(=O)Nc1ccc2c(c1)C(=O)N(CCOC)c1ccccc1O2
2. CS(=O)(=O)Nc1ccc(OCc2nnc(-c3ccc(Cl)cc3)o2)c(F)c1

["48.1% (inactive)", "86% (inactive)"]

---

Would you mind telling me the reported growth of each entry?
Tested on: SK-MEL-28 melanoma
procedure-summary: NCI-60 one-dose screen, 48 h (100 = growth as untreated, 0 = no growth, -100 = all killed)
condition-context: 10 µM
About 83,000 compounds went through this panel and 20% of them were active in at least one assay; those are over-represented in the sample as a whole. Activity calls are given as the source filed them. The calls were made as follows: active = growth percent below 10; inactive = the rest.

> print(dat)
                                   molecule  observed.measurement
1                     O=C(O)CCCCSCCCCC(=O)O       114% (inactive)
2  Cc1cc(C)c(/C=C2\C(=O)Nc3ccc(NC(=O)CCCCCCC(=O)NO)cc32)[nH]1        24% (inactive)
3  CCOC(=O)c1c(O)c2cc(-c3ccccc3)nc(OCC)c2c(=O)n1C      84.8% (inactive)
4  CCCCCCOc1ccc(/C=C/C(=O)c2ccc(B(O)O)cc2)cc1       106% (inactive)
5  COc1cc(C2c3cc4c(cc3C(O)C(CO)C2CO)OCO4)cc(OC)c1OC (stereo unspecified)      44.1% (inactive)

Field: next molecule
Name the reported growth value associated with the molecule O=S(=O)(NC1c2ccccc2Oc2ccccc21)c1cc(Cl)ccc1Cl 110% (inactive)
